B1: CPEB3 Ribozyme (parent)
chain: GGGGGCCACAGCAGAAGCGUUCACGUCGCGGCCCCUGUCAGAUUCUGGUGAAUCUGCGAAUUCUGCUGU

# Variants of: B1
# Protocol: self-cleavage, relative activity (ratio to wild type); higher = more cleavage; co-transcriptional
Quantity kind: self-cleavage
# answer = number (no unit)

# count of solved cases: 8
Exam item: Answer with reported self-cleavage of "GGGGGGCACAGCAGAAGCGUUCACGUCGCGGCCCCUGUCAGAUUCUGGUGAAUCUGCGUAUUCUGCUGU"
Marked response: 0.152

Exam item: Consider the variant "GGGGGCCACAGCAGAAGCGUUCACGUCACGGCCCGUGUCAGAUUCUGGUGAAUCUGCGAAUUCUGCUGU" . State its measured self-cleavage.
Marked response: 0.188

Exam item: Please list self-cleavage recorded for the variant "GGGGGCCACAGCAGAAGCGUUCACGUCGCGGCCCGUGUCAGAUUCGGGUGAAUCUGCGAAUUCUGCUGU"
Marked response: 0.335

Exam item: Annotate the variant "GGGGGCCACAGCAGAAGCGUUCACGUCGCGGCCCCUGUCAGAUUCUGGUGAAUGUGCGUAUUCUGCUGU" with its measured self-cleavage.
Marked response: 0.47

Exam item: Read the entry "GGGGGCCACAACAGAAGCGUUCACGUCGCGGCACCUGUCAGAUUCUGGUGAAUCUGCGAAUUCUGCUGU" and write its reported self-cleavage.
Marked response: 0.853

Exam item: Specify measured self-cleavage for "GGGGGCCACAGCAGAAGCGUUCACGACGCGGCCCCUGUCAGAUUCUGGUGAAUCUGCGACUUCUGCUGU" .
Marked response: 0.285

Exam item: Report self-cleavage for "GGGGGCCACAGCAGAAGCUUUCAUGUCGCGGCCCCUGUCAGAUUCUGGUGAAUCUGCGAAUUCUGCUGU"
Marked response: 0.169

Exam item: Determine from records and report self-cleavage for "GGGGGCCUCAGCAGAAACGUUCACGUCGCGGCCCCUGUCAGAUUCUGGUGAAUCUGCGAAUUCUGCUGU"
Marked response: 0.388

More entries:
Exam item: Identify measured self-cleavage corresponding to "GGGGGCCACAGCAGACGCGUUCACGUCGCGGCCCCUGUCAGAUUCUGGUGAAUCUGCGAAUUCUGCUUU"
Marked response: 0.408

Exam item: Supply reported self-cleavage belonging to this variant: "GGGGGCCAGAGCAGAAGCGUUCACGUCGCGGCCCCUGUCAGAUUCUGGCGAAUCUGCGAAUUCUGCUGU"
Marked response: 1.01

Exam item: Answer with the recorded self-cleavage for the variant listed here: "GGGGGCCACAGCAGACGCGUUCACGUCGCGCCCCCUGUCAGAUUCUGGUGAAUCUGCGAAUUCUGCUGU"
Marked response: 0.113
